experiment: Antioxidant activity assessed as reduction of […]/ferricyanide complex; format: functional
Active and inactive are the calls of the source. The rule behind the calls is not given here.
Classes used: label 1 for active, label 0 for inactive

| smiles | discrete_label |
| --- | --- |
| COc1cc(NCCC(=O)N2c3ccccc3C=Cc3ccccc32)ccc1O | label 1 |
| O=C(CCCl)N1c2ccccc2C=Cc2ccccc21 | label 0 |
| O=C(CCNc1ccc(O)c([N+](=O)[O-])c1)N1c2ccccc2C=Cc2ccccc21 | label 1 |
| O=C(CCNc1cccc(O)c1)N1c2ccccc2C=Cc2ccccc21 | label 1 |
| O=C(CCNc1ccc(O)cc1)N1c2ccccc2C=Cc2ccccc21 | label 1 |
| O=C(CCNc1ccccc1O)N1c2ccccc2C=Cc2ccccc21 | label 1 |
